system tested: farnesyltransferase (FTase) (Bos taurus, UniProt P29702+P49355)
Construct: An extract of minced bovine brain was subjected to column chromatography on DEAE-Sephacel (Pharmacia)
method summary: Farnesyltransferase Inhibitory Activity ([3H]SPA FTase assay, farnesylation of C-terminal peptide of lamin B)
condition: bovine brain crude enzyme
// NB: equality with 9 µM counts as not satisfied; only IC50 strictly below is satisfied

Example entries begin here.
molecule="COCN1C(=O)C(SC(=O)Oc2ccccc2)N(COC)C(=O)C1SC(=O)Oc1ccccc1 (centres unmarked)" system_tested="farnesyltransferase (FTase) (Bos taurus, UniProt P29702+P49355)" qualitative_label=satisfied
molecule=O=C1C2SSC(C(=O)N2Cc2ccccc2)N1Cc1ccccc1 system_tested="farnesyltransferase (FTase) (Bos taurus, UniProt P29702+P49355)" qualitative_label=satisfied
molecule="CN1C(=O)C2SSC1C(=O)N2c1ccccc1 (centres unmarked)" system_tested="farnesyltransferase (FTase) (Bos taurus, UniProt P29702+P49355)" qualitative_label="not satisfied"

INPUT: Problem: For the molecule CN1C(=O)C2SSC1(COCc1ccccc1)C(=O)N2c1ccccc1 (centres unmarked) , is IC50 under 9 µM?
OUTPUT: satisfied

INPUT: Problem: For the molecule `O=C1C2SSC(C(=O)N2c2ccccc2)N1c1ccccc1` , is IC50 under 9 µM?
OUTPUT: not satisfied

INPUT: Problem: For the molecule COc1ccccc1N1C(=O)C2(CO)SSC1(CO)C(=O)N2C (centres unmarked) , is IC50 under 9 µM?
OUTPUT: satisfied

INPUT: Problem: For the molecule COCN1C(=O)C(SC(C)=O)N(COC)C(=O)C1SC(C)=O (centres unmarked) , is IC50 under 9 µM?
OUTPUT: satisfied

INPUT: Problem: For the molecule CC(=O)SC1C(=O)N(c2ccccc2)C(SC(C)=O)C(=O)N1C (centres unmarked) , is IC50 under 9 µM?
OUTPUT: satisfied

INPUT: Problem: For the molecule CN1C(=O)C2(COCc3ccccc3)SSC1(COCc1ccccc1)C(=O)N2c1ccccc1 (centres unmarked) , is IC50 under 9 µM?
OUTPUT: satisfied

INPUT: Problem: For the molecule CN1C(=O)C2SSC1(CO)C(=O)N2c1ccccc1 (centres unmarked) , is IC50 under 9 µM?
OUTPUT: satisfied

INPUT: Problem: For the molecule CCOC(=O)SC1C(=O)N(c2ccccc2)C(SC(=O)OCC)C(=O)N1c1ccccc1 (centres unmarked) , is IC50 under 9 µM?
OUTPUT: not satisfied

INPUT: Problem: For the molecule CN1C(=O)C2(CO)SSC1(CO)C(=O)N2c1ccccc1 (centres unmarked) , is IC50 under 9 µM?
OUTPUT: satisfied

INPUT: Problem: For the molecule O=C(Oc1ccccc1)SC1C(=O)N(c2ccccc2)C(SC(=O)Oc2ccccc2)C(=O)N1c1ccccc1 (centres unmarked) , is IC50 under 9 µM?
OUTPUT: not satisfied

INPUT: Problem: For the molecule CC(=O)SC1C(=O)N(Cc2ccccc2)C(SC(C)=O)C(=O)N1Cc1ccccc1 (centres unmarked) , is IC50 under 9 µM?
OUTPUT: satisfied

INPUT: Problem: For the molecule CC(=O)SC1C(=O)N(c2ccccc2)C(SC(C)=O)C(=O)N1c1ccccc1 (centres unmarked) , is IC50 under 9 µM?
OUTPUT: not satisfied

INPUT: Problem: For the molecule COc1ccccc1N1C(=O)C2(CO)SSC1C(=O)N2C (centres unmarked) , is IC50 under 9 µM?
OUTPUT: satisfied

INPUT: Problem: For the molecule CC(=O)OCC1(SC(C)=O)C(=O)N(c2ccccc2)C(SC(C)=O)C(=O)N1C (centres unmarked) , is IC50 under 9 µM?
OUTPUT: not satisfied

----------
Exercise: for every item that follows, state its recorded MIC.
System: Candida albicans ATCC 10231
method summary: Antibacterial Activity, agar dilution method, Candida albicans
Assay type: cell-based
condition: Candida albicans, ATCC10231, pH 7, read-out: MIC CA
Give bare numbers, in µg/mL.

Here's what some known entries look like.
compound="CN1C(=O)C2SSC1(COCc1ccccc1)C(=O)N2c1ccccc1 (stereo not shown) [Compound I-11]" units_label=µg/mL reported_measurement=0.46
compound="O=C1C2SSC(C(=O)N2Cc2ccccc2)N1Cc1ccccc1 [Compound I-19]" units_label=µg/mL reported_measurement=2.6
compound="CN1C(=O)C2(COCc3ccccc3)SSC1(COCc1ccccc1)C(=O)N2c1ccccc1 (stereo not shown) [Compound I-12]" units_label=µg/mL reported_measurement=42

Turning now to a further record.
INPUT: Write down measured MIC (Candida albicans ATCC 10231) for this compound. CN1C(=O)C2SSC1(CO)C(=O)N2c1ccccc1 (stereo not shown) [Compound I-13]
OUTPUT: 42

----------
system tested: farnesyltransferase (FTase) (Bos taurus, UniProt P29702+P49355)
Construct: An extract of minced bovine brain was subjected to column chromatography on DEAE-Sephacel (Pharmacia)
method summary: Farnesyltransferase Inhibitory Activity ([3H]SPA FTase assay, farnesylation of C-terminal peptide of lamin B)
condition: bovine brain crude enzyme
endpoint name: IC50 (µM)
Give bare numbers, in µM.

Here's what some known entries look like.
molecule="O=C(SC1C(=O)N(c2ccccc2)C(SC(=O)c2ccccc2)C(=O)N1c1ccccc1)c1ccccc1 (stereo not drawn)" endpoint_name=IC50 reported_measurement=9
molecule="COc1ccccc1N1C(=O)C(SC(C)=O)N(C)C(=O)C1SC(C)=O (stereo not drawn)" endpoint_name=IC50 reported_measurement=9

Turning now to a further record.
INPUT: Identify IC50 associated with the molecule COc1ccc(Br)cc1N1C(=O)C(SC(C)=O)N(C)C(=O)C1SC(C)=O (stereo not drawn)
OUTPUT: 9
